# MEASUREMENT_NOTES: Selectivity index, ratio of TC50 for uninfected human C8166 cells to EC50 for HIV1 MN infected in human C8166 cells
# Format: toxicity, cell-based
# EXPERIMENTAL_PARAMETERS: uninfected C8166 cells and HIV-1 MN-infected C8166 cells, read-out: Selectivity Index
selectivity ratio: recorded values
MEASURED_PROPERTY: selectivity ratio

| RECORD_SMILES | MEASUREMENT |
| --- | --- |
| COc1cc(O[C@@H]2O[C@H](CO[C@@H]3O[C@H](CO)[C@@H](O)[C@H](O)[C@H]3O)[C@@H](O)[C@H](O)[C@H]2O)c2c(O)c3c(=O)oc(C)cc3c(OC)c2c1 | 2 |
| COc1cc(O[C@@H]2O[C@H](CO[C@@H]3O[C@@H](C)[C@H](O)[C@@H](O)[C@H]3O)[C@@H](O)[C@H](O)[C@H]2O)c2c(O)c3c(=O)oc(C)cc3c(OC)c2c1 | 3.3 |
| COc1cc(O[C@@H]2O[C@H](CO[C@@H]3OC[C@H](O)[C@H](O)[C@H]3O)[C@@H](O)[C@H](O)[C@H]2O)c2c(O)c3c(=O)oc(C)cc3c(OC)c2c1 | 8.9 |
| COc1cc(O[C@@H]2O[C@H](CO)[C@@H](O)[C@H](O)[C@H]2O)c2c(O)c3c(=O)oc(C)cc3c(OC)c2c1 | 4.2 |
